All values here come from ChEMBL document CHEMBL1275364.

Assay: Plasma protein binding in Sprague-Dawley rat assessed as unbound fraction at 1 mg/kg, iv
Assay type: ADME, organism-based
Set-up: dose 1 mg/kg, route intravenous
measurement_name: fraction unbound

molecule	measurement
CNCCC(c1ccccc1)c1ccc(O)c2ccc(OCCN3CCCC3)cc12 (stereo unspecified)	0.33

###

Molecular target: Histamine H3 receptor (Homo sapiens, UniProt Q9Y5N1)
Sequence (Q9Y5N1 whole entry): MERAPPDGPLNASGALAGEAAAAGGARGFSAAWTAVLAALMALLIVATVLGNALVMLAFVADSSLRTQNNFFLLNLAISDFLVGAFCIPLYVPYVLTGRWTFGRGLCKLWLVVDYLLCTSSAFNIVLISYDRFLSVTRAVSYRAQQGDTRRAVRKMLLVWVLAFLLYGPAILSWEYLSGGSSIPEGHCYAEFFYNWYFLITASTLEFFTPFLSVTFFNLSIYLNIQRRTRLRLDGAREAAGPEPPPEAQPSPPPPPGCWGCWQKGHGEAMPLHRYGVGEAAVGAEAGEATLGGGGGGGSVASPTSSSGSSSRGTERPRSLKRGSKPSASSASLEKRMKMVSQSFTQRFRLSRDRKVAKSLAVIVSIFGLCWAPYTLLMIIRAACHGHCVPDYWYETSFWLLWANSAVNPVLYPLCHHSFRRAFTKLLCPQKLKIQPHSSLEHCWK
Experiment: Antagonist activity at human recombinant histamine H3 receptor expressed in HEK cells assessed as inhibition of RAMH-induced [35S]GTPgammaS binding by liquid scintillation counting
Type: functional, cell-based
Conditions: HEK293
measurement_name: Kb (nM)

compound	measurement
CNCCCN(c1ccccc1)c1ccc(OCCN2CCCC2)cc1	0.79
CNCCC(Oc1cccc2cc(OCCN3CCCC3)ccc12)c1ccccc1 (stereo not given)	67
CNCCC(c1ccccc1)c1ccc(O)c2ccc(OCCN3CCCC3)cc12 (stereo not given)	8.3
CNCCCC(c1ccccc1)c1ccc(OCCN2CCCC2)cc1 (stereo not given)	2.1
CNCCN(c1ccccc1)c1ccc(OCCN2CCCC2)cc1	2.4
